Experiment: yeast display, Sf9 membrane polyspecificity reagent, FACS + sequencing; frameworks hold sequencing errors
RECORDED_METRIC: polyreactivity (PSR sort gate)

A selection of reference data follows.
QVQLVESGGGLVHAGGSLRLSCAASGRTQPYNAMGWYRQAPGKERELVAAISKRGSSTYYADSVKGRFTISRDNAKNTVYLQMNSLKPEDTAVYYCATPGPAVHGTRGEYDYWGQGTQVTVSS | high polyreactivity
QVQLVESGGGLVQAGGSLRLSCAASGFIFFRYDMAWYRQAPGKERELVAVITSSGSTNYADSVKGRFTISRDNAKNTVYLQMNSLKPEDTAVYYCNARGYWTWYRGYRMDYWGQGTQVTVSS | high polyreactivity
QVQLVESGGGLVQAGGSLRLSCAASGSIFSTYAMGGYRQAPGKERELVAAIRDSGDRTYYADSVKGRFTISRDNAKNTVYLQMNSLKPDDTAVYYCYARWQEPLKYDYWGQGTPVTVSS | low polyreactivity
QVQLVESGGGLVQAGGSLRLRCAASGFTFYRYAMGWYRQAPGKERELVAAISQRGGTTYYADSVKGRFTISRDNSKNTVYLQMNSLKPDDPAVYYCAARGRAYQNAYEYDYWGQGTQVTVSS | high polyreactivity

Per the record, `QVQLVESGGGLVQAGGSLRLSCAASGSIFSYYAMGWYRQEPGKERELVAAITWSGTRTYYADSVKGRFTISRDNAKNTVYLQMISLKPEDTAVYYCATEYDYWDDSYDSWGLGTQVTVSS` has polyreactivity (PSR sort gate) of low polyreactivity

`QLQLVESGGGLFQAGGSLRISCAASGRTFLRNAMGSYRQPPGKEREFVATISAGGGSTYYADSVKGRFTISRDNAKNTVYLQMNSLKPEDTAVYYCAARYRAGPGYGMDSCGQGTQVTVSS` yielded polyreactivity (PSR sort gate) of high polyreactivity

get_value(item= `QVQLVESGGGLVQAGGSLRLSCAASGNTFLWYAMGWYRQAPGKEREFVAAIRRSGASTYYADSVKGRFTISRDNAKNTVYLQMNSLKPEDTAVYYCAAKFVYWSGAVYTRYDYWGQGTQVTVSS` , readout=polyreactivity (PSR sort gate)) returns high polyreactivity

Field polyreactivity (PSR sort gate) (entry `QVQLVESGGGLVQAGGSLRLSCAASGRIFYYNAMGWYRQSPGKEREFVAAISSGGGSTYYADSVKGRFTISRDNAKNTVYLQMNSLKPEDTAVYYCAAKRQFYRGPAQALSGYGYWGQGTQVTVSS` ) reads high polyreactivity
